# Tested on: 628569-122-R-J1-PDC complex spheroid viability
# assay.procedure: Anticancer human tumor 628569-122-R-J1-PDC patient-derived head and neck squamous carcinoma cell line growth inhibition [CLK]
# experimental.parameters: second compound 0.0316 µM; first compound 3.16 µM; hits give low values
Catalogue of viability, T/C readings, one per entry.

CC(CO)NC(=O)c1cc(-c2ccc(Cl)cc2)nn(-c2cnn(C)c2)c1=O (stereo not given) + CNC(=O)c1ccc(Nc2nc(OC3CCCC3)c3c(-c4ccc5nc(C)oc5c4)c[nH]c3n2)c(OC)c1; 192%
CC1(C)CCC(CN2CCN(c3ccc(C(=O)NS(=O)(=O)c4ccc(NCC5CCOCC5)c([N+](=O)[O-])c4)c(Oc4cnc5[nH]ccc5c4)c3)CC2)=C(c2ccc(Cl)cc2)C1 + CNC(=O)c1ccc(Nc2nc(OC3CCCC3)c3c(-c4ccc5nc(C)oc5c4)c[nH]c3n2)c(OC)c1; 111%
C=C(F)C(=O)N1CCN(c2nc(OCC3CCCN3C)nc3c2CCN(c2cccc4cccc(Cl)c24)C3)CC1CC#N (stereo not given) + CN1CCN(c2cc(C(=O)Nc3cc4cc(-c5cnn(C)c5)ccc4cn3)ccn2)CC1; 113%
O=C(c1cc(Cc2n[nH]c(=O)c3ccccc23)ccc1F)N1CCN(C(=O)C2CC2)CC1 + CNC(=O)c1ccc(Nc2nc(OC3CCCC3)c3c(-c4ccc5nc(C)oc5c4)c[nH]c3n2)c(OC)c1; 103%

Proceed to the following item.
# input For the compound Nc1ccn(C2OC(CO)C(O)C2(F)F)c(=O)n1 (stereo not given) + CN1CCN(c2cc(C(=O)Nc3cc4cc(-c5cnn(C)c5)ccc4cn3)ccn2)CC1 , what viability, T/C is on record?
# output 59%

----------
# Test system: 628569-122-R-J1-PDC complex spheroid viability
# assay.procedure: Anticancer human tumor 628569-122-R-J1-PDC cell line growth inhibition [CLK];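 note: spheroids exposed to agents for seven days before readout; 100% = DMSO vehicle control viability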
# experimental.parameters: second compound 0.316 µM; first compound 0.03 µM; hits give low values
Listing of recorded viability, T/C by entry.

NC(=O)C(=Cn1cnc(-c2cc(C(F)(F)F)cc(C(F)(F)F)c2)n1)c1cncnc1 + CNC(=O)c1ccc(Nc2nc(OC3CCCC3)c3c(-c4ccc5nc(C)oc5c4)c[nH]c3n2)c(OC)c1; 51.7%

# input Param item = NC(=O)C(=Cn1cnc(-c2cc(C(F)(F)F)cc(C(F)(F)F)c2)n1)c1cncnc1 + CN1CCN(c2cc(C(=O)Nc3cc4cc(-c5cnn(C)c5)ccc4cn3)ccn2)CC1 ; retrieve measured viability, T/C.
# output 22.2%

# input Which viability, T/C value belongs to C=CC(=O)Nc1cc(Nc2nccc(-c3cn(C)c4ccccc34)n2)c(OC)cc1N(C)CCN(C)C + CN1CCN(c2cc(C(=O)Nc3cc4cc(-c5cnn(C)c5)ccc4cn3)ccn2)CC1 ?
# output 39%

----------
# System: 628569-122-R-J1-PDC complex spheroid viability
# assay.procedure: Anticancer human tumor 628569-122-R-J1-PDC cell line growth inhibition [CLK];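 note: spheroids exposed to agents for seven days before readout; 100% = DMSO vehicle control viability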
# experimental.parameters: second compound 0.316 µM; first compound 1 µM; hits give low values
As shown below, each of these compounds has a reported viability, T/C value.
# output: bare number, implied unit %

A selection of reference data follows.
Nc1ccccc1NC(=O)c1ccc(CNC(=O)OCc2cccnc2)cc1 + CN1CCN(c2cc(C(=O)Nc3cc4cc(-c5cnn(C)c5)ccc4cn3)ccn2)CC1; 30.2
COc1cccc2c1C(=O)c1c(O)c3c(c(O)c1C2=O)CC(O)(C(=O)CO)CC3OC1CC(N)C(O)C(C)O1 (stereo not given) + CN1CCN(c2cc(C(=O)Nc3cc4cc(-c5cnn(C)c5)ccc4cn3)ccn2)CC1; 4.91
COc1c(OCCCN2CCOCC2)ccc2c3n(c(=NC(=O)c4cnc(N)nc4)nc12)CCN3 + CN1CCN(c2cc(C(=O)Nc3cc4cc(-c5cnn(C)c5)ccc4cn3)ccn2)CC1; 1.37
C=CC(=O)N1CCN(c2nc(=O)n(-c3c(C)ccnc3C(C)C)c3nc(-c4c(O)cccc4F)c(F)cc23)C(C)C1 (stereo not given) + CN1CCN(c2cc(C(=O)Nc3cc4cc(-c5cnn(C)c5)ccc4cn3)ccn2)CC1; 37.5
O=C(c1cc(Cc2n[nH]c(=O)c3ccccc23)ccc1F)N1CCN(C(=O)C2CC2)CC1 + CN1CCN(c2cc(C(=O)Nc3cc4cc(-c5cnn(C)c5)ccc4cn3)ccn2)CC1; 27.7
CCN1CCN(Cc2ccc(Nc3ncc(F)c(-c4cc(F)c5nc(C)n(C(C)C)c5c4)n3)nc2)CC1 + CN1CCN(c2cc(C(=O)Nc3cc4cc(-c5cnn(C)c5)ccc4cn3)ccn2)CC1; 88.4
CCN1CCN(Cc2ccc(Nc3ncc(F)c(-c4cc(F)c5nc(C)n(C(C)C)c5c4)n3)nc2)CC1 + CNC(=O)c1ccc(Nc2nc(OC3CCCC3)c3c(-c4ccc5nc(C)oc5c4)c[nH]c3n2)c(OC)c1; 135
CC1COCCN1c1cc(C2(S(C)(=N)=O)CC2)nc(-c2ccnc3[nH]ccc23)n1 (stereo not given) + CN1CCN(c2cc(C(=O)Nc3cc4cc(-c5cnn(C)c5)ccc4cn3)ccn2)CC1; 38.4

# input Requested field: viability, T/C. Item: O=c1[nH]cc(F)c(=O)[nH]1 + CN1CCN(c2cc(C(=O)Nc3cc4cc(-c5cnn(C)c5)ccc4cn3)ccn2)CC1
# output 44.7

# input So what's the measured viability, T/C for this one? COc1ccc([C@@H](O)c2cc(-c3ncnc4cc(N5CCOCC5)ccc34)c(F)cc2Cl)nn1 + CN1CCN(c2cc(C(=O)Nc3cc4cc(-c5cnn(C)c5)ccc4cn3)ccn2)CC1
# output 15.6

# input Suppose we examine the compound C#Cc1c(F)ccc2cc(O)cc(-c3ncc4c(N5CC6CCC(C5)N6)nc(OCC56CCCN5CC(F)C6)nc4c3F)c12 (stereo not given) + CN1CCN(c2cc(C(=O)Nc3cc4cc(-c5cnn(C)c5)ccc4cn3)ccn2)CC1 ; what viability, T/C value has been reported?
# output 42.4

# input Sample Nc1ccccc1NC(=O)c1ccc(CNC(=O)OCc2cccnc2)cc1 + CNC(=O)c1ccc(Nc2nc(OC3CCCC3)c3c(-c4ccc5nc(C)oc5c4)c[nH]c3n2)c(OC)c1 — what was its viability, T/C?
# output 73.3
